pIC50: −log10 of the molar value.
pIC50 values recorded for human LXRβ (Homo sapiens, UniProt P55055)

compound	study system	pIC50
CCc1nc2c(C(F)(F)F)cccc2n1-c1ccc(Oc2cccc(S(C)(=O)=O)c2)cc1 [Example 67]	human LXRβ (Homo sapiens, UniProt P55055)	7.00
Cc1nc2c(C(F)(F)F)cccc2n1-c1cccc(-c2cccc(S(C)(=O)=O)c2)c1 [Example 75]	human LXRβ (Homo sapiens, UniProt P55055)	7.90
CS(=O)(=O)c1ccc(Oc2ccc(Cl)c(-n3cnc4c(C(F)(F)F)cccc43)c2)cc1 [Example 83]	human LXRβ (Homo sapiens, UniProt P55055)	7.48
Cc1cc(Oc2cccc(S(=O)(=O)C(C)C)c2)ccc1-n1cnc2c(C(F)(F)F)cccc21 [Example 92]	human LXRβ (Homo sapiens, UniProt P55055)	6.46
CCS(=O)(=O)c1cccc(Oc2ccc(-n3c(C(F)(F)F)nc4c(C(F)(F)F)cccc43)cc2)c1 [Example 71]	human LXRβ (Homo sapiens, UniProt P55055)	7.08
CCc1nc2c(C(F)(F)F)cccc2n1-c1ccc(OCc2cccc(S(C)(=O)=O)c2)cc1 [Example 85]	human LXRβ (Homo sapiens, UniProt P55055)	5.72
Cc1nc2c(C(F)(F)F)cccc2n1-c1cccc(Oc2cccc(S(=O)(=O)CCC(C)(C)O)c2)c1 [Example 11]	human LXRβ (Homo sapiens, UniProt P55055)	6.54
Cc1nc2c(C(F)(F)F)cccc2n1-c1cccc(Oc2cccc(S(=O)(=O)C3CC3)c2)c1 [Example 38]	human LXRβ (Homo sapiens, UniProt P55055)	8.24
